assay: NCI Yeast Anticancer Drug Screen. Data for the mlh1 rad18 strain (AID 175); settings: S. cerevisiae mlh1 rad18 strain growth inhibition; at 50.0 µM; active compounds read high
The panel holds about 79,000 compounds, 15% with a hit somewhere; the sample as a whole holds those more often.
For each entry below, report its growth inhibition value.
# number only, unit % dropped from output

I would be grateful if you could share the reported growth inhibition for Nc1ccn(C2OC(COC(=O)C34CC5CC(CC(C5)C3)C4)C(O)C2O)c(=O)n1 (centres undefined) . 6.3

Input COc1cc2c[n+](C)c3ccccc3c2cc1OC -6.35

// next record NCCCCCCN1CCN(c2cccc(Cl)c2)CC1 -13.4

Now consider CC1N=C(c2ccccc2)SC1C (centres undefined) and answer again. -38.3

----------
assay: NCI Yeast Anticancer Drug Screen. Data for the cln2 rad14 strain (AID 165);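 also: 0% = growth equal to vehicle treated cultures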; settings: S. cerevisiae cln2 rad14 strain, at 50.0 µM, active compounds read high
The panel holds about 79,000 compounds, 15% with a hit somewhere; the sample as a whole holds those more often.
measurement type: growth inhibition (%)
Quick note: give the figure in %, leave out the unit.

Requested read-out: growth inhibition. Entry: Nc1nc(N)c(CCCCc2ccc([N+](=O)[O-])cc2)c(N)n1 -9.95

Subsequent entry: O=C1C2C3CCC(C3)C2C(=O)N1CCO (configuration not stated) 4.85

Also O=C(N/N=C/c1cccnc1)C(O)C(O)C(O)C(O)CO (configuration not stated) ? 7.6

Same again, this time with CN1CCC(O)(/C=C\C2(O)CCN(C)CC2)CC1 -3.95

Then O=C(c1ccccc1)C(CBr)C(Br)c1ccccc1 (configuration not stated) ? -24.8

Request: Cc1ccc(NC(=O)CC2Sc3ccccc3NC2=O)c(C)c1 (configuration not stated) -4.4

Lookup COc1cc(-c2cc(O)c(-c3ccc4ccccc4n3)c(=O)[nH]2)cc(OC)c1OC 11.8

----------
experiment: NCI Yeast Anticancer Drug Screen. Data for the mec2-1 strain (AID 157); details: S. cerevisiae mec2-1 strain, at 50.0 µM, active compounds read high
About 79,000 compounds went through this panel and 15% of them were active in at least one assay; those are over-represented in the sample as a whole.
measurement type: growth inhibition (%)
Report only the number, with the unit % understood.

Find the recorded growth inhibition belonging to COC1OC(CO)C(O)C(OCc2ccccc2)C1OCc1ccccc1 (stereo not drawn) and report it. 0.5

Again, but for COC(=O)C(C(=O)C(=O)Nc1ccc(C)cc1)c1nc2ccc([N+](=O)[O-])cc2[nH]c1=O (stereo not drawn) 15.2

For O=c1c2ccccc2c(=O)n2n1CC=CC2 then? -4.2

Similarly, Cc1ccccc1NC(=O)CSc1nnc(-c2ccc(N=Cc3ccc(Cl)cc3)cc2)o1 ? -30.9

Queued: CCC1(O)CC2CN(CCc3c([nH]c4ccccc34)C(C(=O)OC)(c3cc4c(cc3OC)N(C)C3C(O)(C(=O)NCCSSCCNC(=O)C5(O)C(O)C6(CC)C=CCN7CCC8(c9cc(C%10(C(=O)OC)CC%11CN(CCc%12c%10[nH]c%10ccccc%12%10)CC(O)(CC)C%11)c(OC)cc9N(C)C58)C76)C(O)C5(CC)C=CCN6CCC43C65)C2)C1 (stereo not drawn) 11.4

Try C=C(C)C1Cc2cc(C(C)=O)ccc2O1 (stereo not drawn) next. -11.7

# iterate: CCN1c2nc3ccccc3nc2N(CC)c2nc3ccccc3nc21 12.5

Check COc1ccc(NC(=O)C2C(=O)N(c3ccc(OC)cc3)C(=O)/C2=N\NC(N)=O)cc1 (stereo not drawn) too. -24.9

Do the same for CNC(=O)c1ccc(/C=C/c2c[nH]c3ccccc23)[n+](C)c1 please -7.9

Please do the same for Cc1nc(-c2cc3c(ccc4ccccc43)oc2=O)cs1 as well. -8.85

Next record, please: NC(N)=NS(=O)(=O)c1ccc(NC(=O)c2ccc(Cl)c3c(Nc4ccc(S(=O)(=O)N=C(N)N)cc4)c4ccccc4nc23)cc1 31.6

Now give it for Cc1cc(=O)oc2c(CNC(CC(C)C)C(=O)O)c(O)ccc12 (stereo not drawn) too. -32.3

Another compound: O=C(/C=C/c1ccco1)N1CCN(Cc2ccccc2)CC1 8.15

Also O=C1/C(=C/c2ccc(F)cc2)CC/C1=C\c1ccc(F)cc1 ? -12.1

Consider next the compound COc1ccc2c(c1)C13CCCC(C)(C(=O)NC1)C3CC2 (stereo not drawn) in the same way. -17.6

Further, for CN(C)c1ccc(/C=C2\CCOC2=O)cc1 ? 11.8

Cc1cc2c(C(C)C)c(O)c(O)c(C=Nc3ccc4ccccc4c3)c2c(O)c1-c1c(C)cc2c(C(C)C)c(O)c(O)c(C=Nc3ccc4ccccc4c3)c2c1O ? -5.2

Same question for O=C(O)COc1ccc(/C=C2\SC(=S)NC2=O)cc1 please. -8.3

Further, for CNC1NC(=O)c2ccccc2N1Cc1ccc(F)cc1 (stereo not drawn) ? 4.5

Again, but for CCOC(=O)C(Cc1ccc([N+](=O)[O-])cc1)NC(=O)CC1c2ccccc2-c2ccccc21 (stereo not drawn) 1.05

Queued: CC/C(=N\N=C(/CC)c1ccc[nH]1)c1ccc[nH]1 -23.8

Here is the next compound: CNc1ccc(OC)cc1 -0.9

Likewise for CCCCN(CCCC)CC(O)c1cc(-c2ccc(Cl)cc2)nc2c(Cl)cc(Cl)cc12 (stereo not drawn) ? 5.05

----------
Exercise: for every item that follows, state its recorded growth inhibition.
experiment: NCI Yeast Anticancer Drug Screen. Data for the sgs1 mgt1 strain (AID 161);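 also: 0% = growth of cultures given vehicle only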; conditions: S. cerevisiae sgs1 mgt1 strain, at 50.0 µM, active compounds read high
This is part of a sample that, as a whole, favours compounds with a hit. Of some 79,000 tested, about 15% had one in any assay.
Reply with just the number (in %).

Report growth inhibition for C/C(=C1/CCOC1=O)c1cccc(/C(C)=C2\CCOC2=O)c1 please. -3.05

Please do the same for Cc1ccc(C(=O)/C=C\C=C\c2ccccc2)cc1 as well. 41.6

Try CC(=O)Nc1ccc(C2C(C(=O)Nc3ccccc3)=C(C)NC(C)=C2C(=O)Nc2ccccc2)cc1 next. 12.7

Record: CC(C)(C)NC1=NCCNC(c2ccccc2)=C1 -19.4

----------
experiment: NCI Yeast Anticancer Drug Screen. Data for the sgs1 mgt1 strain (AID 161);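 also: 0% = growth of cultures given vehicle only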; conditions: S. cerevisiae sgs1 mgt1 strain, at 50.0 µM
Compounds without any hit were thinned out: in the full panel of roughly 79,000, 15% have a hit. Activity calls are given as the source filed them. No stated cut-off is given here; in the data, active means growth inhibition above about 70%; inactive means the rest.
Parameter call: string, one of T for active, F for inactive

Status in this test for O=C1C=C(Nc2ccccc2C(=O)CC(=O)C(=O)Nc2ccc(Cl)c(Cl)c2)c2ccccc2C1=O ? F

Okay, and O=C(O)C(Br)C(Br)C(=O)Nc1cccc(C(F)(F)F)c1 (stereo not drawn) ? F

Thanks! And N#C/C(=C\c1cccs1)C(=O)c1ccco1 ? F

Also CON(C)CCOC(=O)c1ccc([N+](=O)[O-])cc1 ? F

Try this compound too: CC(=O)NC1=C(C)C(=O)c2c(nc3n2CCC3OC(=O)c2ccccc2)C1=N (stereo not drawn) F

Try the compound COc1ccc(S(=O)(=O)N/N=C/c2cc(I)cc([N+](=O)[O-])c2O)cc1 F

Note, next up: NC(=O)c1csc(CCCCCCc2nc(C(N)=O)cs2)n1 F

// next record O=c1oc2ccccc2[n+]([O-])c1-c1ccccc1 F

CCN1C(=O)/C(=C\c2ccccc2)N=C1C , same question. F

Now the compound NC(=S)N1CCCC1 F

Same again, this time with C=C(C)c1ccc(C(=C)C)cc1 F

What do you get for O=c1oc2c(ccc3ccccc32)c(O)c1-c1cccc2ccccc12 ? T

Same question for Cc1c(Cl)cccc1NC(=O)C(=O)C1C(=O)CC(C)(C)CC1=O please. F

What about this compound? NCCNc1ncnc2ccc(Cl)cc12 F

// repeat for O=C1c2ccccc2C(=O)N1OCCCCON1C(=O)c2ccccc2C1=O and report F

Here is the next compound: CCOC(=O)N[C@@H]1C(CC(=O)OC)O[C@H]2OC(C)(C)O[C@H]21 (stereo partly drawn) F

Entry CCCC(=O)c1ccc(C)cc1 please F

Field entry: Nc1nc(N)nc(-c2ccco2)n1 F

Same question for CC(=O)Nc1c(C)ccc([N+](=O)[O-])c1C please. F

What do you get for NC(=O)c1ccc(NC=O)cc1 ? F

# repeat for COc1ccccc1/C=C1\CCC(CCN(C)C)(C2=CCCC2)C1=O (stereo not drawn) F

Next entry: O=C(O)/C=C/C(=O)Nc1cccc2c1Cc1ccccc1-2 F

Same for CN1C(=O)C(Cc2cnc[nH]2)NC1=S (stereo not drawn) F

Another: CCOC(=O)c1ccc(NC(=O)c2ccc(Cl)cc2Cl)cc1 F

And then COc1cc(C(=O)O[C@H]2CCC3CCC2N3C)cc(OC)c1OC (stereo partly drawn) , what is it? F

For CC(O)CSCC(C)O (stereo not drawn) then? F

Okay, and Oc1cccc(N2CCN(c3cccc(O)c3)CC2)c1 ? F

Further, for CN(C)CCC(C(=O)NCc1ccccc1)C(=O)NCc1ccccc1 ? F

Subsequent entry: Cc1ccc(NC(=O)CCc2nnc3s/c(=C\c4cccc([N+](=O)[O-])c4)c(=O)n23)cc1 F

Let us now turn to CN(Cc1cnc2nc(N)nc(N)c2n1)c1ccc(C(=O)NC(CCC(=O)OC(C)(C)C)C(=O)O)cc1 (stereo not drawn) F

Quick one: O=C1c2c(ccc3c2CCCC3)CC12Cc1ccc3c(c1C2=O)CCCC3 F

Please give the result for O=C1Cn2c(cc(=O)c3ccccc32)O1 too. F

Now this one: CCOC(=O)C(C(=O)OCC)=c1sc(=C(C(=O)OCC)C(=O)OCC)s1 F

Check CC(=O)O[C@H]1C(=O)[C@]2(C)[C@@H](OC(=O)OCCC(O)CO)C[C@H]3OC[C@@]3(OC(C)=O)[C@H]2[C@H](OC(=O)c2ccccc2)[C@]2(O)C[C@H](OC(=O)[C@H](O)[C@@H](NC(=O)c3ccccc3)c3ccccc3)C(C)=C1C2(C)C (stereo partly drawn) too. F

What about this compound? CCCCc1ccc(O)c(CN(CC)CC)c1 F

Moving on to the next compound: CCCOC(=O)CCCCC(=O)OCCC F

Do the same for Cc1ccc(/C=C/C(=N/NC(=O)c2ccccc2)C(C)CN(C)C)cc1 (stereo not drawn) please F

Can you check COC(=O)N/N=C(\C)c1sc(-c2nc(C)c(/C(C)=N/NC(=O)OC)s2)nc1C next? F
